I'd be grateful if you could share measured tissue uptake at 120 h for these entries.
ASSAY_SUMMARY: Biodistribution of 177Lu-labeled αMSH analogues in mice bearing SK-MEL-1 human melanoma
TEST_CONDITIONS: male, NRG (NOD.Cg-Rag1tm1Mom Il2rgtm1Wjl/SzJ), mouse, bone, total radioactivity
Report only the number, with the unit %ID/g understood.

Request: Entry CCCC[C@H](NC(=O)CN1CCC(NC(=O)[C@H](CCCCNC(=O)CN2CCN(CC(=O)O)CCN(CC(=O)O)CCN(CC(=O)O)CC2)NC(=O)CNC(=O)CCCc2ccc(-c3ccc(C)cc3)cc2)CC1)C(=O)N[C@H]1CC(=O)NCCCC[C@@H](C(N)=O)N(C)C(=O)[C@H](Cc2c[nH]c3ccccc23)NC(=O)[C@H](CCCNC(=N)N)N(C)C(=O)[C@@H](Cc2ccccc2)NC(=O)[C@H](Cc2c[nH]cn2)NC1=O [^177Lu-labeled CCZ01158, metal not drawn] has what tissue uptake at 120 h?
Response: 0.23

Request: Next up: CCCC[C@H](NC(=O)CN1CCC(NC(=O)[C@H](CCCCNC(=O)CN2CCN(CC(=O)O)CCN(CC(=O)O)CCN(CC(=O)O)CC2)NC(=O)[C@H](CCC(=O)O)NC(=O)CCCc2ccc(I)cc2)CC1)C(=O)N[C@H]1CC(=O)NCCCC[C@@H](C(N)=O)N(C)C(=O)[C@H](Cc2c[nH]c3ccccc23)NC(=O)[C@H](CCCNC(=N)N)N(C)C(=O)[C@@H](Cc2ccccc2)NC(=O)[C@H](Cc2c[nH]cn2)NC1=O [^177Lu-labeled CCZ01118, metal not drawn]
Response: 0.26

Request: Try the compound CCCC[C@H](NC(=O)CN1CCC(NC(=O)[C@H](CCCCNC(=O)CN2CCN(CC(=O)O)CCN(CC(=O)O)CCN(CC(=O)O)CC2)NC(=O)CNC(=O)CCCc2ccc(I)cc2)CC1)C(=O)N[C@H]1CC(=O)NCCCC[C@@H](C(N)=O)N(C)C(=O)[C@H](Cc2c[nH]c3ccccc23)NC(=O)[C@H](CCCNC(=N)N)N(C)C(=O)[C@@H](Cc2ccccc2)NC(=O)[C@H](Cc2c[nH]cn2)NC1=O [^177Lu-labeled CCZ01148, metal not drawn]
Response: 0.49

meta.source: patent US11395857B2
